Data origin: paper PMC11117716

- protocol-details: Population pharmacokinetic analysis (Nonmem) in healthy volunteers and Alzheimer's and Parkinson's patients
- Assay type: in vivo, human
- test-parameters: human, plasma, oral; popPK, as dose increased from 0.04 to 2.4 mg/kg; read-out: Michaelis constant (km)
test-readout: Km

Qu. Form field: reported Km of CN1CC[C@]2(C)c3cc(OC(=O)Nc4ccccc4)ccc3N(C)C12.O=C(O)C(O)C(O)C(=O)O (stereo partly shown) [Posiphen]
Ans. 0.01 to 0.015 µg/mL

----------
- protocol-details: Plasma pharmacokinetics after oral Posiphen in CD-1 mice (LC-MS/MS)
- test-parameters: both, CD-1, mouse, in vivo, 65 mg/kg
test-readout: concentration at 8 h (ng/mL)
Give the value, in units of ng/mL, as a plain number.

Qu. What value of concentration at 8 h has been reported for the following compound? CN1c2ccc(OC(=O)Nc3ccccc3)cc2[C@@]2(C)CCNC12 (stereo partly shown)
Ans. 3.64
